Origin of measurements: patent US20260098102A1

target: T1, human SIRPA_V7 (human, UniProt P78324 31-504); assay: cell-based ELISA on 293α cells expressing FLAG-tagged SIRPA_V7; Abs 490 normalized to FLAG tag [iii]
T1 construct: FLAG-tagged (pFLAG V5-DEST), on 293α cells; also called human SIRPA Variant 7
T1 sequence (P78324 other isoform, or with tags, fused parts or gaps limits assumed): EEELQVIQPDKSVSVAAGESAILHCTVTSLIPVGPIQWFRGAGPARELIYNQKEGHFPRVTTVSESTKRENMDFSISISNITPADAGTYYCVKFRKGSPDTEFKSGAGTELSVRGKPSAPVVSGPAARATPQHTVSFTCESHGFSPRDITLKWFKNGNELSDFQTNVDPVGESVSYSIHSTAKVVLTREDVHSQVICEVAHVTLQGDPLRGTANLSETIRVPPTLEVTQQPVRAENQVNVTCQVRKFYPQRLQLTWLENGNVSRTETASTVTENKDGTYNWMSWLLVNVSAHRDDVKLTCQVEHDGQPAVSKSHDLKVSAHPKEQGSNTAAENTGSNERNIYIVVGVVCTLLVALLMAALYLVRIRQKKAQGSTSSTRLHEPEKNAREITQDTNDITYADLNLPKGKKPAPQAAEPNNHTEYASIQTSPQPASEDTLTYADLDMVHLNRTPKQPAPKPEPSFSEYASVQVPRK
Attribute Measured: EC50 (read off the curve)

Query (binder): humanized anti-SIRPA antibody hD13_H2L3 (antibody, human IgG4 S228P, kappa, F234A L235A, V domains shown, hH2 heavy chain (IgG4proFALA) and hL3 kappa light chain; also called H2L3 antibody) VH: EVQLVESGGGVVQPGRSLRLSCAASGFTFSDYGMIWVRQAPGKGLEWVASISSSSSYIYYADSVKGRFTISRDNSKNTLYLQMNSLRAEDTAVYYCARRYYGFNYPFDYWGQGTMVTVSS VL: DTQLTQSPSSLSASVGQRVTITCGASKSVRTYMHWYQQKPGKQPKLLIYSASNLEAGVPSRFSGSGSGTDFTLTISSLQPEDFATYYCQQSNEPPYTFGQGTKLEIKR ; field requested: EC50 (read off the curve) ~40 ng/mL
